IC50 for assorted compounds
- TARGET OF ASSAY: recombinant human ULK1 protein (1-649) (Homo sapiens, UniProt O75385)
- Construct: recombinant human ULK1 protein (1-649, SignalChem #U01-11G); purchased SignalChem U01-11G
- PROTOCOL TEXT: ULK1 inhibition assay (ADP Glo)
- Type: biochemical
- CONDITION DETAILS: Table 1; 25 uM ATP, MBP substrate, one hour

{"COMPOUND": "CNC(=O)c1ccccc1Oc1nc(Nc2ccc3c(c2)CCN(CCOC)C3)ncc1C(F)(F)F [Compound A121]", "IC50": "> 10 nM"}
{"COMPOUND": "CN(C)CCN1CCc2cc(Nc3ncc(C(F)(F)F)c(NC4CC4)n3)ccc2C1 [Compound A44]", "IC50": "< 1 nM"}
{"COMPOUND": "FC(F)(F)c1cnc(Nc2ccc3c(c2)CN(CC2OCCO2)CC3)nc1NC1CC1 [Compound A79]", "IC50": "1 to 10 nM"}

[Q] Provide the reported IC50 (system: recombinant human ULK1 protein (1-649) (Homo sapiens, UniProt O75385)) for NCCC(=O)N1CCc2cc(Nc3ncc(C(F)(F)F)c(NC4CC4)n3)ccc2C1 [Compound A31]
[A] < 1 nM

[Q] Recall the reported IC50 of CC(C)(C)OC(=O)N1CCc2ccc(Nc3ncc(C(F)(F)F)c(NC4CC4)n3)cc2C1 [Compound A15] when tested on recombinant human ULK1 protein (1-649) (Homo sapiens, UniProt O75385).
[A] 1 to 10 nM

[Q] Report value only: IC50, recombinant human ULK1 protein (1-649) (Homo sapiens, UniProt O75385), FC(F)(F)c1cnc(Nc2ccc3c(c2)CNCC3)nc1NC1CC1 [Compound A16]
[A] < 1 nM

[Q] Fill: IC50 (recombinant human ULK1 protein (1-649) (Homo sapiens, UniProt O75385)) for this compound N[C@H](CO)C(=O)N1CCc2cc(Nc3ncc(C(F)(F)F)c(NC4CC4)n3)ccc2C1 (stereo in doubt) [Compound A48]
[A] < 1 nM

---

Catalogue of compounds with associated IC50
- TARGET OF ASSAY: recombinant human ULK1 protein (1-649) (Homo sapiens)
- Construct: recombinant human ULK1 protein (1-649, SignalChem #U01-11G); purchased SignalChem U01-11G
- PROTOCOL TEXT: ULK1 inhibition assay (ADP Glo)
- Format: biochemical
- CONDITION DETAILS: Table 1; 25 uM ATP, MBP substrate, one hour

Some compounds with recorded IC50:
{"COMPOUND STRUCTURE": "O=C(CN1CCc2ccc(Nc3ncc(C(F)(F)F)c(NC4CC4)n3)cc2C1)N1CCOCC1", "IC50": "< 1 nM"}
{"COMPOUND STRUCTURE": "FC(F)(F)c1cnc(Nc2ccc3c(c2)CCN(Cc2ccccc2)C3)nc1NC1CC1", "IC50": "< 1 nM"}
{"COMPOUND STRUCTURE": "CN1CCc2cc(Nc3ncc(Br)c(NC4CC4)n3)ccc2C1", "IC50": "< 1 nM"}

[Q] Annotate the compound FC(F)(F)c1cnc(Nc2ccc3c(c2)CCN(Cc2ccoc2)C3)nc1NC1CC1 with its measured IC50.
[A] 1 to 10 nM

---

- TARGET OF ASSAY: recombinant human ULK1 protein (1-649) (Homo sapiens)
- Construct: recombinant human ULK1 protein (1-649, SignalChem #U01-11G); purchased SignalChem U01-11G
- Sequence (O75385 1-649): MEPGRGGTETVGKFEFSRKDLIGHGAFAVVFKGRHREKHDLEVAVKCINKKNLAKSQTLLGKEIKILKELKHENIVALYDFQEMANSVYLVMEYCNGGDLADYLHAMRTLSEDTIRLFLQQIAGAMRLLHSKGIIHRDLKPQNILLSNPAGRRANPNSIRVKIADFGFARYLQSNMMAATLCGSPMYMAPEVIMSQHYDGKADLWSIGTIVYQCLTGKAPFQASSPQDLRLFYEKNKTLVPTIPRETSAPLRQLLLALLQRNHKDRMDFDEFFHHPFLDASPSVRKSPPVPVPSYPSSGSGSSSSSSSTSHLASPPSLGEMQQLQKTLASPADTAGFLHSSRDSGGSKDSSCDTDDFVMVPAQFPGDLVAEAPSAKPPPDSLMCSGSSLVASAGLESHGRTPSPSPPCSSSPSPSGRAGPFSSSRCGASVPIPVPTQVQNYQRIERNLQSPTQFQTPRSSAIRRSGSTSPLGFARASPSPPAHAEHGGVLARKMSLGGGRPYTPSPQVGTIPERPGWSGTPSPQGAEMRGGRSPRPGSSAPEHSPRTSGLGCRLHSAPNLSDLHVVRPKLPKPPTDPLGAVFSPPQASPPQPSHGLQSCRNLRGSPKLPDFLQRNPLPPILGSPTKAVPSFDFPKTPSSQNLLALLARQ
- PROTOCOL TEXT: ULK1 inhibition assay (ADP Glo)
- Assay type: biochemical
- CONDITION DETAILS: Table 1; 25 uM ATP, MBP substrate, one hour
- Method: Illustrative compounds of Formula I and related analogs are shown in Table 1 (along with their respective IC50 values for ULK1 inhibition assays). […] ULK 1 inhibition was assessed after one hour. […] According to another embodiment, the present disclosure provides methods of producing the above-defined compounds. […] Advantageously, these compounds are conveniently synthesized from readily available starting materials. […]
IC50 overview

{"COMPOUND": "CNC(=O)c1ccccc1Nc1nc(Nc2ccc3c(c2)CCN(Cc2ccncc2)C3)ncc1Br", "VAL": "> 10 nM"}

[Q] For CNC(=O)c1ccccc1Nc1nc(Nc2ccc3c(c2)CN(CCOC)CC3)ncc1Br , write its IC50.
[A] > 10 nM

[Q] State, in one line, measured IC50 of CC(C)(C)OC(=O)C1Cc2ccc(Nc3ncc(C(F)(F)F)c(NC4CC4)n3)cc2C1 (stereo not drawn)
[A] 1 to 10 nM

[Q] Let me know recorded IC50 for CNC(=O)c1ccccc1Nc1nc(Nc2ccc3c(c2)CN(C(=O)N2CCN(C)CC2)CC3)ncc1Br , thanks.
[A] > 10 nM

[Q] Assign IC50 to the following record: CNC(=O)c1ccccc1Nc1nc(Nc2ccc3c(c2)CCN(Cc2cccnc2)C3)ncc1Br
[A] > 10 nM

[Q] Respond only with IC50 recorded for N[C@@H](CC(=O)O)C(=O)N1CCc2cc(Nc3ncc(C(F)(F)F)c(NC4CC4)n3)ccc2C1 (racemic)
[A] < 1 nM

---

- TARGET OF ASSAY: recombinant human ULK1 protein (1-649) (Homo sapiens, UniProt O75385)
- Construct: recombinant human ULK1 protein (1-649, SignalChem #U01-11G); purchased SignalChem U01-11G
- Sequence (O75385 1-649): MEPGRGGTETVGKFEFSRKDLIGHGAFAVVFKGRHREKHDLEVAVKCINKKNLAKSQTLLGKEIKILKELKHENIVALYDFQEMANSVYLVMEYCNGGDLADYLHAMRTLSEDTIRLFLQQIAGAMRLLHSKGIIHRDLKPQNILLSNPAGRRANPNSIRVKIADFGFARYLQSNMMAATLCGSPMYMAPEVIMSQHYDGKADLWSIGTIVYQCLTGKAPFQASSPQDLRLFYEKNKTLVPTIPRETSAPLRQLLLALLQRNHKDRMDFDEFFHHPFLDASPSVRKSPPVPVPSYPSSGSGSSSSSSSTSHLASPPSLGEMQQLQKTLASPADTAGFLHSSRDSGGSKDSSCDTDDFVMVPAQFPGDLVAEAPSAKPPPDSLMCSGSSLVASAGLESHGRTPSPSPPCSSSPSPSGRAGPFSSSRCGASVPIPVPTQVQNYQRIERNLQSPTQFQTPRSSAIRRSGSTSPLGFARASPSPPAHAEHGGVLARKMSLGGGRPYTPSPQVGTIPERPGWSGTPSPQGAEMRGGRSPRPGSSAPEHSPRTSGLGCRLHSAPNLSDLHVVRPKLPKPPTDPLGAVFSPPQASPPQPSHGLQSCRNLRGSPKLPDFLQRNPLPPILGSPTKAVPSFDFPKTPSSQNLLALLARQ
- PROTOCOL TEXT: ULK1 inhibition assay (ADP Glo)
- Type: biochemical
- CONDITION DETAILS: Table 3
pIC50: −log10 of the molar value.
OBSERVED PROPERTY: pIC50

{"COMPOUND STRUCTURE": "CNC(=O)c1ccccc1Nc1nc(Nc2cc(OC)cc(OC)c2)ncc1Br", "VAL": "7.00 to 8.30"}
{"COMPOUND STRUCTURE": "CNC(=O)c1ccccc1Nc1nc(Nc2ccc(OC)c(OC)c2)ncc1Br", "VAL": "7.00 to 8.30"}
{"COMPOUND STRUCTURE": "CNC(=O)c1ccccc1Nc1nc(Nc2ccc3c(c2)OCCO3)ncc1C(F)(F)F", "VAL": "7.00 to 8.30"}

[Q] Identify measured pIC50 associated with COc1cc(Nc2ncc(Br)c(Nc3ccccc3CN(C)C)n2)cc(OC)c1OC
[A] 7.00 to 8.30

[Q] Provide measured pIC50 value, entry: COc1cc(Nc2ncc(Br)c(Nc3ccccc3C(=O)NCC(F)(F)F)n2)cc(OC)c1OC
[A] 7.00 to 8.30

[Q] Give the measured pIC50 for COc1cc(Nc2ncc(Br)c(Nc3ccccc3CN3CCN(S(C)(=O)=O)CC3)n2)cc(OC)c1OC
[A] < 7.00

Source: patent US20230135635A1
